Target: T1, RasGAP SH2-SH3-SH2 construct (residues 174 to 444), R427Q (human, UniProt P20936 174-444, C236S | C261S | C372S | C402S | R427Q)
T1 sequence: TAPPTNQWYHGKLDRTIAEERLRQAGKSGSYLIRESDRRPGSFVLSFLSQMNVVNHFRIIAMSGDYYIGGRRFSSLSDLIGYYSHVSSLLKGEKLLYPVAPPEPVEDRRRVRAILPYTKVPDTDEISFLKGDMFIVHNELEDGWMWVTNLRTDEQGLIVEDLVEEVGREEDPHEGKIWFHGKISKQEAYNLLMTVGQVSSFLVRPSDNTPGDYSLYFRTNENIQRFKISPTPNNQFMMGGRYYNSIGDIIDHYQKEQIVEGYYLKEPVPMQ
Assay: ITC; replicate, Figure S7 panel F
[ ]: non-standard residue; d: D form. pY = N[C@@H](Cc1ccc(OP(=O)(O)O)cc1)C(=O)O
measured_endpoint: Kd (nM)
Dear colleague, please return just the value in nM, with no unit written.

In: # return recorded Kd for entry Ac-DPSD[pY]AEPMDAVVKPRNEEENI[pY]SVPHDS-NH2 (p190RhoGAP (ARHGAP35), UniProt Q9NRY4, residues 1083-1111, 29 amino acids; also called p190RhoGAP peptide; ARHGAP35 peptide; source: synthetic peptide, bought: GenScript) [p190RhoGAP phosphopeptide, residues 1083 to 1111 (pY1087, pY1105)]
Out: 8.14
